- target-entity: Recombinant human Gal3 (rhGal3) (TrueBinding, #QC200361) (human, UniProt P17931 2-250); note: test concentration or dose not given here
- method: cell-based or functional assay
property-measured: % inhibition of TNFα secretion (%)
Dear colleague, please return just the value in %, with no unit written.

Worked examples, 2 binders total:
binder	test-value
7D8.2D8 (antibody, mouse IgG2a, V domains shown) VH: EVQLVESGGGLVKPGGSLKLSCAASGFTFSSYAMSWVRQTPEKRLEWVATISDGGIYTYYPDNVKGRFTISRDNAKNNLFLQMSHLKSEDTAMYYCVRDGGYWGQGTTLTVSS VL: DVLMTQTPLSLPVSLGDQASISCRSSQSIVHSNGNTYLEWYLQKPGQSPKLLIYKVSNRFSGVPDRFSGSGSGTDFTLKISRVEAEDLGVYYCFQGSHVPLTFGAGTKLELKR	-11.5
F846TC.16B5 (antibody, human IgG4 S228P, kappa, V domains shown) VH: QIQLVQSGPELKKPGETVKISCKASGYTFTNYGMNWVKQAPGKGLKWMGWINTYTGEPAYADDFKGRFAFSLETSASTAYLQINNLKNEDMATYFCARWGGYDGDYYAMDYWGQGTSVTVSS VL: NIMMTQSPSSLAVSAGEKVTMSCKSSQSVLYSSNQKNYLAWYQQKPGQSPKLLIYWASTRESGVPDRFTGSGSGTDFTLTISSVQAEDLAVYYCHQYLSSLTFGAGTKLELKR	-11.4

Consider the record given below.
Dear colleague, I am looking for the recorded % inhibition of TNFα secretion of the following binder: 23H9.2E4 (antibody, mouse IgG2a, V domains shown) VH: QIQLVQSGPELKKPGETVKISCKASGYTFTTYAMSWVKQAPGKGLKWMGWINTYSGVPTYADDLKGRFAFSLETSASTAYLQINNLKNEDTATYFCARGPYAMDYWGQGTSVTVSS VL: DIQMTQTTSSLSASLGDRVTISCSASQGINNYLNWYQQKPDGTVKLLIYYASSLHSGVPSRFSGSGSGTDYSLTISNLEPEDIATYYCQQYSQVPYTFGSGTKLEIKR
100

Sourced from patent US20250243282A1
